B1: PTPLAD1 (parent)
chain: YINFRHLYKQRRRRYGQKKKKIH

- Variants of: B1
- procedureText: protein stability index of a GFP-peptide fusion (GPS, HEK-293T) (PSI 1-6); higher = more stable;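 further: lentivirally expressed fusions sorted by FACS into six bins by GFP to DsRed ratio, PSI derived from sequencing read proportions per bin multiplied by bin number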
- conditionInfo: c terminus: native
// label = T if protein stability index is not less than 2, otherwise F

# variantDesignation, categoryLabel
records = [
    ("K20R", "F"),
    ("R14T", "F"),
    ("K19E", "F"),
    ("Y15H", "F"),
    ("N3L", "T"),
    ("N3S", "T"),
    ("I2N", "T"),
    ("R5P", "T"),
    ("I22P", "F"),
    ("N3Y", "F"),
    ("R12E", "F"),
    ("Y15E", "T"),
    ("L7F", "F"),
    ("N3A", "F"),
    ("R5T", "T"),
    ("R13Q", "F"),
    ("K20W", "F"),
    ("Q10C", "T"),
    ("Y15W", "T"),
    ("Q17N", "T"),
    ("H23V", "T"),
    ("N3W", "F"),
    ("Y1L", "F"),
    ("F4P", "F"),
    ("R14K", "T"),
    ("R12F", "F"),
    ("R12T", "T"),
    ("L7H", "T"),
    ("L7P", "T"),
    ("F4G", "F"),
    ("H6M", "F"),
    ("Y1K", "F"),
    ("Q17H", "F"),
    ("G16D", "T"),
    ("Y8E", "T"),
    ("H23C", "F"),
    ("Y8N", "T"),
    ("R12M", "T"),
    ("G16F", "F"),
    ("K9I", "T"),
]
